Data credit: paper PMC4476799

- Test system: cancer cell lines from the cancer cell line encyclopedia (CCLE)
- test-name: Cell line profiling (CLiP) proliferation experiment
- Type: cell-based
- test-context: Homo sapiens, NALM-6, cell line NALM-6 (haematopoietic_and_lymphoid_tissue); read-out: Crossing Point
property-measured: IC50 (µM)
Could you give me the number in µM? Just the number is fine.

Give recorded IC50. CC(C)[C@@]12C[C@@H](O)[C@@](C)(O1)[C@@H]1CC[C@@H](C)[C@H]1[C@@H]2OC(=O)/C=C/c1ccccc1
11.8

---

- System: cancer cell lines from the cancer cell line encyclopedia (CCLE)
- test-name: Cell line profiling (CLiP) proliferation experiment
- Assay type: cell-based
- test-context: cell line HARA, lung; read-out: Crossing Point
property-measured: pIC50
The read-out pIC50 is expressed as -log10 of concentration in moles per litre.

Give recorded pIC50. CC(C)[C@@]12C[C@@H](O)[C@@](C)(O1)[C@@H]1CC[C@@H](C)[C@H]1[C@@H]2OC(=O)/C=C/c1ccccc1
4.80
